METHOD_NOTES: Rat pharmacokinetics, oral administration
Type: in vivo
Parameters: unit not given here
CONDITION_LABEL: rat, in vivo, po, 20 mg/kg, Rat 3
Procedure: The pharmacokinetics of compound 1 was tested in rats after intravenous and oral administration. Two rats were administered 5 mg/kg compound 1 intravenously in a vehicle consisting of 7% Tween 80, 3% EtOH, 5% DMSO in saline. Two rats were administered 20 mg/kg compound 1 orally in a vehicle consisting of 5% DMSO, 0.5% Tween 80, 1% methylcellulose in water. The results are shown in Table 4 and FIGS. 3A-3B and 4A-4B.
ENDPOINT_NAME: AUC(0-inf)
The answer should be a number; do not append a unit.

Task: Endpoint output: AUC(0-inf) of O=C(Nc1ccc2sc(-c3ccc(F)c(F)c3)nc2c1)N1CC[C@H](F)C1 . Value?
Result: 5770
